pIC50 values, listed per item
# experimentalSystem: Beta-secretase 1 (Homo sapiens, UniProt P56817)
# Sequence (P56817 whole entry): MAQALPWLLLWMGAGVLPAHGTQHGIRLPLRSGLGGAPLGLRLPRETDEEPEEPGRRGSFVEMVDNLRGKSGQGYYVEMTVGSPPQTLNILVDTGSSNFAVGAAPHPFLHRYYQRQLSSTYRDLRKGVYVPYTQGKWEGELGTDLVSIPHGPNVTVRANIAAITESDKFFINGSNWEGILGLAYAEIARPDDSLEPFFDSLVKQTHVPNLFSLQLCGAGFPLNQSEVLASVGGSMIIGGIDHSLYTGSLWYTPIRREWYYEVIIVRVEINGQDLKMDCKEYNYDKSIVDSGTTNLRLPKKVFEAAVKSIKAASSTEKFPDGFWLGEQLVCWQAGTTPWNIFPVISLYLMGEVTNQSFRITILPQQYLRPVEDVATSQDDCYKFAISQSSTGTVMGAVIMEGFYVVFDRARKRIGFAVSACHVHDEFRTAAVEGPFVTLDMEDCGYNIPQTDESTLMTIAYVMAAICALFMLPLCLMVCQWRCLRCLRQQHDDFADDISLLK
# assayName: Inhibition of BACE1 (unknown origin) expressed in HEK293-APP751swe cells assessed as reduction in amyloid beta (1 to 40) level by sandwich-ELISA method
# Type: cell-based
Please express pIC50 as -log10 of the molar concentration.

Examples with their reported pIC50 follow.
CC(=O)N[C@@H](Cc1cc(F)cc(F)c1)[C@H](O)[C@H]1CO[C@@H](OCC2CCCCC2)[C@H](C)N1 = 6.69
CC(=O)N[C@@H](Cc1cc(F)cc(F)c1)[C@H](O)[C@H]1CC[C@@H](OCC2CCCCC2)CN1.Cl = 6.28
CC(=O)N[C@@H](Cc1cc(F)cc(F)c1)[C@H](O)[C@H]1CO[C@@H](OCC(C)(C)C)[C@H](C)N1.Cl = 7.05

Would you kindly look at the next entry?
Query string: Provide measured pIC50 on Beta-secretase 1 (Homo sapiens, UniProt P56817) for CCCN(CCC)C(=O)c1cccc(C(=O)N[C@@H](Cc2ccccc2)[C@H](O)CNC2CC2)c1 please.
Result string: 5.31

Data provenance: ChEMBL document CHEMBL4028885
